- Protocol summary: Pharmacokinetics in plasma and PELF of healthy pigs after intramuscular injection
- Type: in vivo
- Details: pig, plasma, im, plasma, healthy pigs, single drug i.m.: ADP 5 mg/kg b.w., SMZ 25 mg/kg b.w., n = 6
Attribute measured: Tmax (h)
Just the number please, in h, no unit attached.

Q: // Tmax lookup, key: COc1cc(Cc2cnc(N)nc2N)cc(OC)c1N(C)C
Ans: 1

###

- Protocol summary: Pharmacokinetics in plasma and PELF of pigs infected with G. parasuis H78 after intramuscular injection
- Assay type: in vivo
- Details: pig, plasma, im
Attribute measured: Tmax (h)
Just the number please, in h, no unit attached.

Q: // Tmax lookup, key: COc1cc(Cc2cnc(N)nc2N)cc(OC)c1N(C)C
Ans: 2

###

- Protocol summary: Pharmacokinetics in plasma and PELF of healthy pigs after intramuscular injection
- Assay type: in vivo
- Details: pig, plasma, im, AUC 24h, plasma, healthy pigs, single drug i.m.: ADP 5 mg/kg b.w., SMZ 25 mg/kg b.w., n = 6
Attribute measured: AUC(0-t) (ng·h/mL)
Just the number please, in ng·h/mL, no unit attached.

Q: // AUC(0-t) lookup, key: COc1cc(Cc2cnc(N)nc2N)cc(OC)c1N(C)C [ADP, Aditoprim]
Ans: 7590

###

- Protocol summary: Pharmacokinetics in plasma and PELF of healthy pigs after intramuscular injection
- Format: in vivo
- Details: pig, PELF, im, AUC 24h, PELF, healthy group, ADP/SMZ injection 5/25 mg/kg b.w. i.m., n = 6
Attribute measured: AUC(0-t) (ng·h/mL)
Just the number please, in ng·h/mL, no unit attached.

Q: // AUC(0-t) lookup, key: COc1cc(Cc2cnc(N)nc2N)cc(OC)c1N(C)C
Ans: 49100

###

- Protocol summary: Pharmacokinetics in plasma and PELF of healthy pigs after intramuscular injection
- Format: in vivo
- Details: pig, plasma, im, plasma, healthy group, ADP/SMZ injection 5/25 mg/kg b.w. i.m., n = 6
Attribute measured: Tmax (h)
Just the number please, in h, no unit attached.

Q: // Tmax lookup, key: COc1cc(Cc2cnc(N)nc2N)cc(OC)c1N(C)C [ADP, Aditoprim]
Ans: 2

###

- Protocol summary: Pharmacokinetics in plasma and PELF of healthy pigs after intramuscular injection
- Format: in vivo
- Details: pig, PELF, im, PELF, healthy group, ADP/SMZ injection 5/25 mg/kg b.w. i.m., n = 6; read-out: MRT 24h
Attribute measured: MRT last
Please answer using the number first and the unit second.

Q: // MRT last lookup, key: COc1cc(Cc2cnc(N)nc2N)cc(OC)c1N(C)C
Ans: 6.88 h

###

- Protocol summary: Pharmacokinetics in plasma and PELF of healthy pigs after intramuscular injection
- Type: in vivo
- Details: pig, PELF, im, PELF, healthy group, ADP/SMZ injection 5/25 mg/kg b.w. i.m., n = 6
Attribute measured: Tmax
Please answer using the number first and the unit second.

Q: // Tmax lookup, key: COc1cc(Cc2cnc(N)nc2N)cc(OC)c1N(C)C
Ans: 1.95 h

###

- Protocol summary: Pharmacokinetics in plasma and PELF of healthy pigs after intramuscular injection
- Assay type: in vivo
- Details: pig, PELF, im, PELF, healthy pigs, single drug i.m.: ADP 5 mg/kg b.w., SMZ 25 mg/kg b.w., n = 6; read-out: MRT 24h
Attribute measured: MRT last (h)
Just the number please, in h, no unit attached.

Q: // MRT last lookup, key: COc1cc(Cc2cnc(N)nc2N)cc(OC)c1N(C)C [ADP, Aditoprim]
Ans: 6.43

Source listed as paper PMC9607282.
